- target or test system: Protein translocase subunit SecA (Escherichia coli (strain K12))
- assay procedure: Assay to Identify E. coli SecA ATPase Inhibitors
- Assay type: functional
- Set-up: scale not given: direction of the effect not stated beside the values
- reported conditions: 30 µM
Entries with a potency or affinity are not part of this list.
Assign Percent Effect to each entry below.
Please give a number only; it is taken to be in %.

What value of Percent Effect has been reported for the following molecule? CC(C)COC(C)C(=O)NCc1ccc(OC(C)C)nc1 (stereo unspecified) -1.41

Proceed to CCc1nnc2n1CCN(C(=O)COCCc1ccccc1)C2 -5.81

Proceed to CC(C)n1ncc2c1NC(=O)CC21C(=O)Nc2c(Cl)cc(Cl)cc21 (stereo unspecified) -1.94

Proceed to Cc1noc(NC(=O)c2ccc(OC(F)(F)F)cc2)n1 -1.74

Proceed to COCCC(=O)Nc1ccnc(Oc2ccccc2)c1 2.99

Proceed to CNC(=O)N1C[C@H]2CC[C@@]3(N=C(c4ccccc4)NC3=O)[C@H]2C1 -5.03

Proceed to Cc1cnc2c(S(=O)(=O)NCC3CCS(=O)(=O)C3)cccc2c1 (stereo unspecified) -3.39

Proceed to CN(C)C(=O)[C@H]1C[C@@H]2CN(S(=O)(=O)Cc3ccccc3)C[C@H]1O2 -2.48

Proceed to COc1ccccc1CN(C)c1nccc(-c2cn(C)nc2C)n1 -1.09

Proceed to CC(=O)N1CCOC(c2cc(N3CC(O)C3)nc(C)n2)C1 (stereo unspecified) -3.22

Proceed to COc1cccc(C2CCCN2C(=O)c2cc3c([nH]c2=O)CCC3)c1 (stereo unspecified) -1.17
